The measurements presented in this section are drawn from patent US8575197B2.

# target_under_test: human P2X3 receptor (Homo sapiens (Human), UniProt P56373)
# Sequence (P56373 whole entry): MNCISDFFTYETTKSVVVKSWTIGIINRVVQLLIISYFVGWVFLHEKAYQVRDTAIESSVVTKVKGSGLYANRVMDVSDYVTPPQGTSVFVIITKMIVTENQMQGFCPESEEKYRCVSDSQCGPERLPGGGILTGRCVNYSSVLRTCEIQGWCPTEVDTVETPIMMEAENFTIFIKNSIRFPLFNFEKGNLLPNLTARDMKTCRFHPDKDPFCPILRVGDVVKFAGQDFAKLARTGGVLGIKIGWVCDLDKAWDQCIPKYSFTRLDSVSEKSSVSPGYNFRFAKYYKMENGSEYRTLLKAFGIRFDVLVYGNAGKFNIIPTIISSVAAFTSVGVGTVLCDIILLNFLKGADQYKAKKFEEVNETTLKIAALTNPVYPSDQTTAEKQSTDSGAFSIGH
# run_description: P2X3 receptor inhibition, ATP-evoked Fluo-3 calcium fluorescence (FDSS 3000)
# experimental_conditions: C6BU-1 cell transfected with human P2X3 receptor gene; ATP-evoked Fluo-3 fluorescence
pIC50: −log10 of the molar value.
quantity_kind: pIC50

Sample answers from the record:
compound | target_under_test | recorded_measurement
COCCOc1ccccc1[C@@H]1C(C(=O)C(C)C)=C(O)C(=O)N1c1ccc(-c2ccc(C)s2)cc1 [Compound I-465] | human P2X3 receptor (Homo sapiens (Human), UniProt P56373) | 8.15
COc1ccccc1C1C(C(=O)C(C)C)=C(O)C(=O)N1c1ccc(-c2ccoc2)cc1 (stereo not shown) [Compound I-198] | human P2X3 receptor (Homo sapiens (Human), UniProt P56373) | 7.19
CC(C)C(=O)C1=C(O)C(=O)N(c2ccc(-c3ccsc3)cc2)C1c1ccccc1N1CCOCC1 (stereo not shown) [Compound I-443] | human P2X3 receptor (Homo sapiens (Human), UniProt P56373) | 8.22
COC(=O)COc1ccccc1C1c2c(C(C)(C)C)n[nH]c2C(=O)N1c1ccc(-c2cccs2)cc1 (stereo not shown) [II-021] | human P2X3 receptor (Homo sapiens (Human), UniProt P56373) | 8.05
COCCOc1ncccc1C1C(C(=O)C(C)C)=C(O)C(=O)N1c1ccc(-c2ccc(C)s2)cc1 (stereo not shown) [Compound I-267] | human P2X3 receptor (Homo sapiens (Human), UniProt P56373) | 7.85

I. COc1ccccc1C1c2c(C(C)(C)C)n[nH]c2C(=O)N1c1ccc(-c2cccs2)nc1 (stereo not shown) [II-255]
II. COC(=O)COc1ccccc1C1C(C(=O)C(C)(C)C)=C(O)C(=O)N1c1ccc(-c2ccon2)cc1 (stereo not shown) [Compound I-133]
Query string: Endpoint returns whichever of I and II has the numerically higher pIC50. Lab log: write the label of the selected item as the result.
Result string: I
(I: 8.52, II: 6.44)

* * *

# target_under_test: human P2X3 receptor (Homo sapiens (Human))
# run_description: P2X3 receptor inhibition, ATP-evoked Fluo-3 calcium fluorescence (FDSS 3000)
# experimental_conditions: C6BU-1 cell transfected with human P2X3 receptor gene; ATP-evoked Fluo-3 fluorescence
quantity_kind: IC50 (nM)

Sample answers from the record:
compound | recorded_measurement
CCOc1ccccc1C1C(C(=O)CC(C)C)=C(O)C(=O)N1c1ccc(-c2ccoc2)cc1 (stereo not drawn) | 47
CC(C)CC(=O)C1=C(O)C(=O)N(c2ccc(-c3ccsc3)cc2)C1c1ccccc1OCCCO (stereo not drawn) | 13
CC(C)c1n[nH]c2c1C(c1ccccc1OCC(=O)NN)N(c1ccc(-c3ccsc3)cc1)C2=O (stereo not drawn) | 5
COc1ccccc1C1c2c(C(C)C)n[nH]c2C(=O)N1c1ccc(-c2ccsc2)c(NC(C)=O)c1 (stereo not drawn) | 853

1. CC(C)COc1ccccc1C1C(C(=O)C(C)C)=C(O)C(=O)N1c1ccc(-c2ccsc2)cc1 (stereo not drawn)
2. COc1cc(N2C(=O)C(O)=C(C(=O)C(C)C)C2c2ccccc2OC)ccc1-c1ccsc1 (stereo not drawn)
3. CC(C)(C)C(=O)C1=C(O)C(=O)N(c2ccc(-c3ccco3)cc2)C1c1ccccc1OCCO (stereo not drawn)
Query string: Arrange the 3 compounds by rising IC50, starting with the smallest. Present the labels in the sequence the task asks for.
Result string: 1, 3, 2

A. Cc1ccc(-c2ccc(N3C(=O)C(O)=C(C(=O)CC(C)C)C3c3ccccc3C(=O)N(C)C)cc2)s1 (stereo not drawn)
B. COCCOc1ccccc1C1C(C(=O)C(C)C)=C(O)C(=O)N1c1ccc(-c2ccc(C)s2)cc1 (stereo not drawn)
Query string: Identify the entry with the smaller IC50: A or B . Lab log: write the label of the selected item as the result.
Result string: B

* * *

# target_under_test: human P2X3 receptor (Homo sapiens (Human))
# run_description: P2X3 receptor inhibition, ATP-evoked Fluo-3 calcium fluorescence (FDSS 3000)
# experimental_conditions: C6BU-1 cell transfected with human P2X3 receptor gene; ATP-evoked Fluo-3 fluorescence
# Procedure: Stably expressing cell line (C6BU-1 cell transfected with human P2X3 receptor gene (GenBank accession number Y07683)) was used. […] Five minutes after, 40 nM ATP solution (50 μL) prepared by dilution with the dilution buffer was dispensed through the built-in automatic dispenser, and the measurement of fluorescence intensity was continued for 3 min. […] FDSS software (Hamamatsu Photonics K.K.) was used for calculation of the specific maximum fluorescence intensity. […]
quantity_kind: IC50 (nM)

molecule | target_under_test | quantity_kind | recorded_measurement
CC(C)CC(=O)C1=C(O)C(=O)N(c2ccc(-c3ccsc3)cc2)C1c1ccccc1C(F)(F)F (stereo not drawn) | human P2X3 receptor (Homo sapiens (Human)) | IC50 | 127
COc1ccc(C(=O)C2=C(O)C(=O)N(c3ccc(-c4ccsc4)cc3)C2C2COC(C)(C)OC2)cn1 (stereo not drawn) | human P2X3 receptor (Homo sapiens (Human)) | IC50 | 36
CC(C)Oc1ccccc1C1C(C(=O)C(C)C)=C(O)C(=O)N1c1ccc(-c2ccsc2)cc1 (stereo not drawn) | human P2X3 receptor (Homo sapiens (Human)) | IC50 | 8
Cc1ccc(-c2ccc(N3C(=O)C(O)=C(C(=O)C(C)C)C3c3ccccc3OC(F)F)cc2)o1 (stereo not drawn) | human P2X3 receptor (Homo sapiens (Human)) | IC50 | 25

1. CC(C)CC(=O)C1=C(O)C(=O)N(c2ccc(C3=NCCS3)cc2)C1c1ccccc1OC(C)C (stereo not drawn)
2. CC(C)(C)C(=O)C1=C(O)C(=O)N(c2ccc(-c3ccsc3)cc2)C1c1ccccc1OCC(N)=O (stereo not drawn)
3. Cc1ccc(-c2ccc(N3C(=O)C(O)=C(C(=O)CC(C)C)C3c3cccnc3C(=O)N3CCCC3)cc2)s1 (stereo not drawn)
4. COC(=O)Nc1ccccc1C1c2c(C(C)C)n[nH]c2C(=O)N1c1ccc(-c2ccsc2)cc1 (stereo not drawn)
5. Cc1nc(-c2ccc(N3C(=O)C(O)=C(C(=O)CC(C)C)C3c3ccccc3OC(F)(F)F)cc2)no1 (stereo not drawn)
Query string: Arrange the 5 molecules by rising IC50, starting with the smallest. Present the labels in the sequence the task asks for.
Result string: 2, 4, 1, 5, 3
(2: 8 nM, 4: 12 nM, 1: 42 nM, 5: 222 nM, 3: 429 nM)

* * *

# target_under_test: human P2X3 receptor (Homo sapiens (Human), UniProt P56373)
# run_description: P2X3 receptor inhibition, ATP-evoked Fluo-3 calcium fluorescence (FDSS 3000)
# experimental_conditions: C6BU-1 cell transfected with human P2X3 receptor gene; ATP-evoked Fluo-3 fluorescence
pIC50: −log10 of the molar value.
quantity_kind: pIC50

Sample answers from the record:
molecule | target_under_test | pIC50
CC(C)(C)C(=O)C1=C(O)C(=O)N(c2ccc(-c3ccco3)cc2)C1c1cccnc1OCCO (stereo not shown) | human P2X3 receptor (Homo sapiens (Human), UniProt P56373) | 6.86
COCc1ccccc1C1C(C(=O)CC(C)C)=C(O)C(=O)N1c1ccc(-c2ccco2)cc1 (stereo not shown) | human P2X3 receptor (Homo sapiens (Human), UniProt P56373) | 7.36
COc1cccc(OC)c1C1c2c(C(C)(C)C)n[nH]c2C(=O)N1c1ccc(-c2ccon2)cc1 (stereo not shown) | human P2X3 receptor (Homo sapiens (Human), UniProt P56373) | 6.27
COCCOc1cc(F)ccc1C1C(C(=O)C(C)C)=C(O)C(=O)N1c1ccc(-c2ccoc2)cc1 (stereo not shown) | human P2X3 receptor (Homo sapiens (Human), UniProt P56373) | 7.72
Cc1noc(-c2ccc(N3C(=O)c4[nH]nc(C(C)(C)C)c4C3c3ccccc3OCCO)cc2)n1 (stereo not shown) | human P2X3 receptor (Homo sapiens (Human), UniProt P56373) | 6.80

A. COCCOc1ncccc1C1C(C(=O)C(C)C)=C(O)C(=O)N1c1ccc(-c2csc(C)c2)cc1 (stereo not shown)
B. COCCOc1ccccc1C1C(C(=O)C(C)C)=C(O)C(=O)N1c1ccc(-c2cc(C)on2)cc1 (stereo not shown)
Query string: Identify the entry with the smaller pIC50: A or B . Lab log: write the label of the selected item as the result.
Result string: B

* * *

# target_under_test: human P2X3 receptor (Homo sapiens (Human), UniProt P56373)
# run_description: P2X3 receptor inhibition, ATP-evoked Fluo-3 calcium fluorescence (FDSS 3000)
# experimental_conditions: C6BU-1 cell transfected with human P2X3 receptor gene; ATP-evoked Fluo-3 fluorescence
# Method: Stably expressing cell line (C6BU-1 cell transfected with human P2X3 receptor gene (GenBank accession number Y07683)) was used. […] Five minutes after, 40 nM ATP solution (50 μL) prepared by dilution with the dilution buffer was dispensed through the built-in automatic dispenser, and the measurement of fluorescence intensity was continued for 3 min. […] FDSS software (Hamamatsu Photonics K.K.) was used for calculation of the specific maximum fluorescence intensity. […]
quantity_kind: IC50 (µM)

molecule | IC50 / µM
CSc1ccc(N2C(=O)c3[nH]nc(C(C)(C)C)c3C2c2cccnc2OCCO)cc1 (stereo not shown) [II-040] | 0.07

1. CC(C)CC(=O)C1=C(O)C(=O)N(c2ccc(-c3ccsc3)cc2)C1c1ccccc1C(=O)N(C)C (stereo not shown) [Compound I-405]
2. Cc1cc(-c2ccc(N3C(=O)C(O)=C(C(=O)CC(C)C)C3c3ccccc3OC(F)F)cc2)on1 (stereo not shown) [Compound I-341]
3. CC(C)c1n[nH]c2c1C(c1ccccc1OCC(=O)O)N(c1ccc(-c3ccsc3)cc1)C2=O (stereo not shown) [II-047]
4. CC(C)c1n[nH]c2c1C(c1ccccn1)N(c1ccc(-c3ccsc3)cc1)C2=O (stereo not shown) [II-233]
Query string: Rank order required: IC50, descending. Present the labels in the sequence the task asks for.
Result string: 2, 4, 1, 3

P. COc1ccccc1C1c2c(C(C)(C)CO)n[nH]c2C(=O)N1c1ccc(-c2nc(C)no2)cc1 (stereo not shown) [II-138]
Q. COCCOc1ccccc1C1C(C(=O)C(C)(C)C)=C(O)C(=O)N1c1ccc(-c2ccon2)cc1 (stereo not shown) [Compound I-098]
R. COCCOc1ncccc1C1C(C(=O)CC(C)C)=C(O)C(=O)N1c1ccc(SC)cc1 (stereo not shown) [Compound I-550]
Query string: Rank order required: IC50, descending. Present the labels in the sequence the task asks for.
Result string: Q, R, P
(Q: 0.37 µM, R: 0.254 µM, P: 0.044 µM)

1. COc1ccc(F)cc1C1C(C(=O)C(C)C)=C(O)C(=O)N1c1ccc(-c2csc(C)c2)cc1 (stereo not shown) [Compound I-453]
2. COCCOc1ccccc1C1C(C(=O)C(C)C)=C(O)C(=O)N1c1ccc(SC)cc1 (stereo not shown) [Compound I-475]
3. CC(C)c1n[nH]c2c1C(c1ccccc1OCCN(C)C)N(c1ccc(-c3ccsc3)cc1)C2=O (stereo not shown) [II-078]
4. COc1ccccc1C1c2c(C(C)(C)C(=O)N(C)C)n[nH]c2C(=O)N1c1ccc(-c2ccsc2)cc1 (stereo not shown) [II-172]
5. COc1ccccc1C1c2c(CC(C)(C)C)n[nH]c2C(=O)N1c1ccc(-c2ccon2)cc1 (stereo not shown) [II-073]
Query string: Arrange the 5 molecules by rising IC50, starting with the smallest. Present the labels in the sequence the task asks for.
Result string: 4, 3, 1, 5, 2
(4: 0.011 µM, 3: 0.016 µM, 1: 0.041 µM, 5: 0.105 µM, 2: 0.181 µM)
